System: cypris larvae of the barnacle Amphibalanus amphitrite
procedure_details: Antifouling assay: inhibition of settlement of cypris larvae, 48 h exposure
Assay type: in vivo
assay_conditions: Amphibalanus amphitrite, 48 h, larval settlement reduced to 50% of control, 48 h, Probit analysis; read-out: EC50 (50% effective concentration), antifouling activity
Non-standard residues stand in square brackets, D forms with d. Residues, ends and D or L forms follow the SMILES beside them. *: point of attachment. X5 = C[C@H](OCc1ccccc1)C(=O)*; dNMeV = CN[C@@H](C(=O)O)C(C)C; Hiv = CC(C)[C@H](O)C(=O)O; OBn = c1ccc(CO*)cc1
Each record here notes measured EC50.

// known answers, use as guide
molecule	result
CC(C)[C@H](OC(=O)[C@@H]1CCCN1C(=O)OC(C)(C)C)C(=O)N(C)[C@@H](C(=O)N1CCC[C@H]1COCc1ccccc1)C(C)C [Compound 29, Boc-Pro-O-Hiv-D-MeVal-Pro-CH2OBn]	3.27 µg/mL
CC(C)[C@@H](NC(=O)[C@@H]1CCCN1C(=O)[C@@H](NC(=O)OC(C)(C)C)[C@H](C)Cc1ccc(O)cc1)[C@@H](C)C(=O)OCc1ccccc1 [Compound 21, Boc-Dpv(OH)-Pro-Dml-OBn]	< 1 µg/mL
CC(C)[C@H](OC(=O)[C@@H]1CCCN1C(=O)[C@H](C)OCc1ccccc1)C(=O)N(C)[C@@H](C(=O)N1CCC[C@H]1C(=O)OCc1ccccc1)C(C)C [Compound 25, BnO-Lac-Pro-O-Hiv-D-MeVal-Pro-OBn] (X5-P[Hiv][dNMeV]P-OBn)	< 1 µg/mL
CC(C)[C@@H](NC(=O)[C@@H]1CCCN1C(=O)[C@@H](NC(=O)OC(C)(C)C)[C@H](C)Cc1ccc(OCc2ccccc2)cc1)[C@@H](C)C(=O)OCc1ccccc1 [Compound 22, Boc-Dpv(OBn)-Pro-Dml-OBn]	4.62 µg/mL

Now look at this entry.
Hey, cypris larvae of the barnacle Amphibalanus amphitrite data for CC(C)[C@@H](NC(=O)[C@@H]1CCCN1C(=O)[C@@H](NC(=O)OC(C)(C)C)[C@H](C)Cc1ccccc1)[C@@H](C)C(=O)OCc1ccccc1 [Boc-3] : EC50 came out at < 1 µg/mL
